The measurements presented in this section are drawn from paper PMC4599001.

assayed.target: UniProtKB P29475
protocol.description: NADPH oxidation by nNOS (340 nm)
Assay type: biochemical
condition.info: +Arg, −BH4, in the absence of Na2S; read-out: IC50, NADPH oxidation by nNOS
property.measured: IC50

Name the reported IC50 value associated with the compound O=C([O-])[C@@H]1CCCN1[N+]([O-])=NO.O=C([O-])[C@@H]1CCCN1[N+]([O-])=NO.[Na+].[Na+]
~80 µM

====

assayed.target: nNOS (Homo sapiens, UniProt P29475)
Sequence (P29475 whole entry): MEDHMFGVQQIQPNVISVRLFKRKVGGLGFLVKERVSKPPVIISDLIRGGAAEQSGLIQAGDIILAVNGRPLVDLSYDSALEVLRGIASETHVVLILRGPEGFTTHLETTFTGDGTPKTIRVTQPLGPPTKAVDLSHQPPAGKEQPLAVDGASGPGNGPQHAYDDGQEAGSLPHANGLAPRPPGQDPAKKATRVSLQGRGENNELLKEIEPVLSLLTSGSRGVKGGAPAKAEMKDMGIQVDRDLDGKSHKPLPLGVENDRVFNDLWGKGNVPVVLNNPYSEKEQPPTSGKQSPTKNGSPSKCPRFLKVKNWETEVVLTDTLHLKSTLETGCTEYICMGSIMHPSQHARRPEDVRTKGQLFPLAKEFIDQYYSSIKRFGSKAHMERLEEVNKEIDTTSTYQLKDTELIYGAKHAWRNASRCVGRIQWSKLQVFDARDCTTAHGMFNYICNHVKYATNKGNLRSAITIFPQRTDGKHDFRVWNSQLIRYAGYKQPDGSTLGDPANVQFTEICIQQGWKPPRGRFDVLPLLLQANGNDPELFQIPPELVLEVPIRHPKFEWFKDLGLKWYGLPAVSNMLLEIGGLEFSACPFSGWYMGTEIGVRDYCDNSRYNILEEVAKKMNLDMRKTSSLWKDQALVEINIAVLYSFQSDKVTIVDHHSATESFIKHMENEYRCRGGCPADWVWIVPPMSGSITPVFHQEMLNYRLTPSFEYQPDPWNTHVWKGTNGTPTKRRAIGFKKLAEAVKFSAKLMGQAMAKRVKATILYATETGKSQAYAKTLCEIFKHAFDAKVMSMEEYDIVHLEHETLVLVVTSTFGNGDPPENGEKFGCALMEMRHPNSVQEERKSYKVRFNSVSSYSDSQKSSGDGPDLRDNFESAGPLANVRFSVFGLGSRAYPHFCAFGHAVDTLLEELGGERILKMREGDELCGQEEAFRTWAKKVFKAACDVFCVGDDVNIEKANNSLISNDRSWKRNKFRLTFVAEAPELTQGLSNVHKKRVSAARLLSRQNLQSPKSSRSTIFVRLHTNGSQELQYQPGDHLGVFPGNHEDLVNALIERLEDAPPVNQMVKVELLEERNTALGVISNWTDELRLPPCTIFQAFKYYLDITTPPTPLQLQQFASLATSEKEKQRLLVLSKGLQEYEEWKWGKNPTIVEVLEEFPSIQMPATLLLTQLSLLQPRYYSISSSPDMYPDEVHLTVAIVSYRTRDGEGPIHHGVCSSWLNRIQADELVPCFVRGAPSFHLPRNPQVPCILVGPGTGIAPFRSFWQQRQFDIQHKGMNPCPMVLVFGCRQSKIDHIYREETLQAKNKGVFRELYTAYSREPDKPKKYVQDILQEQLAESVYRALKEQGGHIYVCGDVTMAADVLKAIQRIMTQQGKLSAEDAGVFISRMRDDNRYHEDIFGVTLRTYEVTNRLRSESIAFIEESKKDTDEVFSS
condition.info: read-out: Apparent IC50, citrulline formation by nNOS
property.measured: IC50 (µM)
Your answer is read as µM, so omit the unit and give the number.

Name the reported IC50 value associated with the molecule C1COCCN1.COc1ccc(P(=S)(S)N2CCOCC2)cc1 (stereo not shown) [GYY4137]
2200

====

assayed.target: nNOS (Homo sapiens)
protocol.description: NADPH oxidation by nNOS (340 nm)
Format: biochemical
condition.info: +Arg, −BH4, in the presence of 10 μM Na2S; read-out: IC50, NADPH oxidation by nNOS
property.measured: IC50

Name the reported IC50 value associated with the compound O=C([O-])[C@@H]1CCCN1[N+]([O-])=NO.O=C([O-])[C@@H]1CCCN1[N+]([O-])=NO.[Na+].[Na+]
~10 µM

====

assayed.target: nNOS (Homo sapiens)
condition.info: read-out: IC50, citrulline formation by nNOS
property.measured: IC50
Answer with the number, then the unit.

Name the reported IC50 value associated with the compound [Na+].[Na+].[S-2] [Na2S, sodium sulfide]
23 µM

====

assayed.target: nNOS (Homo sapiens)
protocol.description: NADPH oxidation by nNOS (340 nm)
Assay type: biochemical
condition.info: absence of BH4, with Na2S, after 10 min; read-out: Apparent IC50, potentiation of the inhibitory effect of Na2S on NADPH oxidation by nNOS
property.measured: IC50
Answer with the number, then the unit.

# query: IC50 | item NCCCNCCCCN(CCCN)/[N+]([O-])=N/O | system: nNOS (Homo sapiens)
106 µM

====

assayed.target: UniProt:P29474
property.measured: IC50 (µM)
Your answer is read as µM, so omit the unit and give the number.

# query: IC50 | item O=C([O-])[C@@H]1CCCN1[N+]([O-])=NO.O=C([O-])[C@@H]1CCCN1[N+]([O-])=NO.[Na+].[Na+] [PROLI/NO] | system: UniProt:P29474
100

====

assayed.target: nNOS (Homo sapiens, UniProt P29475)
protocol.description: NADPH oxidation by nNOS (340 nm)
Assay type: biochemical
condition.info: Arg and/or BH4 omitted, no NO (span over conditions); read-out: IC50, reversible inhibition of nNOS by H2S alone
pIC50: −log10 of the molar value.
property.measured: pIC50

Name the reported pIC50 value associated with the molecule S [H2S, hydrogen sulfide]
3.22 to 4.00

====

assayed.target: nNOS (Homo sapiens)
condition.info: read-out: IC50, citrulline formation by nNOS; Angeli's salt as HNO donor, 50 mM TEA pH 7.4, 10 min, 37 °C
property.measured: IC50 (µM)
Your answer is read as µM, so omit the unit and give the number.

# query: IC50 | item [Na+].[Na+].[O-][N+]([O-])=NO [Angeli's salt, disodium diazen-1-ium-1,2,2-triolate] | system: nNOS (Homo sapiens)
190
